molecular target: p48 (Homo sapiens, UniProt P49642, D111N); experiment: isothermal titration calorimetry
Sequence (P49642 whole entry D111N): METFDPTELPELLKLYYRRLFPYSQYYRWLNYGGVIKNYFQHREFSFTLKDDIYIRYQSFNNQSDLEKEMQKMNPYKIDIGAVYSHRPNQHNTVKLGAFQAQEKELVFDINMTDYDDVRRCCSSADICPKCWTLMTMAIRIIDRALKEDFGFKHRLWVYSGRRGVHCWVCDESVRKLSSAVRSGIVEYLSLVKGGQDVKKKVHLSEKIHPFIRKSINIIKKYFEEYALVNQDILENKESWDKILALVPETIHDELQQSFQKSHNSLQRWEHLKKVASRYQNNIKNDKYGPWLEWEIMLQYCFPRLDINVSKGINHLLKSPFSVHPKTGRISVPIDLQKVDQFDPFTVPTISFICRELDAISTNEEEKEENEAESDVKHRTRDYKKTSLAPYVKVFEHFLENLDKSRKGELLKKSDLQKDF
MEASURED PROPERTY: pKd
Note on units: pKd is unitless, being -log10 of a concentration expressed in mol/L.

Enquiry: May I ask what pKd has been recorded for O=c1ccn([C@@H]2O[C@H](COP(=O)(O)OP(=O)(O)OP(=O)(O)O)[C@@H](O)[C@H]2O)c(=O)[nH]1 ?
Return: 4.27

----------
target: p48/p58 (Homo sapiens, UniProt P49642); test: isothermal titration calorimetry
Sequence (P49642 whole entry): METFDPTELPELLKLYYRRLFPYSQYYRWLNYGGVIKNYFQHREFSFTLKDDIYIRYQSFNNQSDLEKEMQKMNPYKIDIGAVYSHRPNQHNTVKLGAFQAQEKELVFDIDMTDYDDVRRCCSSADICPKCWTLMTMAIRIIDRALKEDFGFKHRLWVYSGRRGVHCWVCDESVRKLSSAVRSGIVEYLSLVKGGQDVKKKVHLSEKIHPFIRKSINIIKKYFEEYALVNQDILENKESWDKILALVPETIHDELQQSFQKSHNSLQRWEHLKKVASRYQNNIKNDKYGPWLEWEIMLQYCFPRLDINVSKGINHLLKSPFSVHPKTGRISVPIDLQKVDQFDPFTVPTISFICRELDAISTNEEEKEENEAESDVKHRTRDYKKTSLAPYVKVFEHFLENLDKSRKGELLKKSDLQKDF
Sequence (P49643 whole entry partner): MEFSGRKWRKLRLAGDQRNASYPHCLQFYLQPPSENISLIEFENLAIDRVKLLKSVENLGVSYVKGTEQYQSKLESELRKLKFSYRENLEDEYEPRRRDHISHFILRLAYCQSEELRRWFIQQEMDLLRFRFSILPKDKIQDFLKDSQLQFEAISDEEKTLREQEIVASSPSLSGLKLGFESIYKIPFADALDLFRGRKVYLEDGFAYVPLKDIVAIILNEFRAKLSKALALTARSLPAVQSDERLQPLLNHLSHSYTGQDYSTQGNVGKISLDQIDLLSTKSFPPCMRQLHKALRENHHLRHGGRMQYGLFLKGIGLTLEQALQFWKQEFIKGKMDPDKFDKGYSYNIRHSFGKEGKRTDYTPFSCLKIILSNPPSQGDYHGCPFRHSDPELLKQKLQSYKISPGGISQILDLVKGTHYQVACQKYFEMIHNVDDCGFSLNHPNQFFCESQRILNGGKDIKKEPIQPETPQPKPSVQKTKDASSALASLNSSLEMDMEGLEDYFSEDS
MEASURED PROPERTY: pKd
pKd (log units): -log10 of the concentration in mol/L.

Enquiry: Please report the recorded pKd for O=c1ccn([C@@H]2O[C@H](COP(=O)(O)OP(=O)(O)OP(=O)(O)O)[C@@H](O)[C@H]2O)c(=O)[nH]1 [UTP] .
Return: 4.70
